tested on: CSNK1G2; conditions: concentration: 1 μM, replicates: in singlicate; n = 1;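 also: KINOMEscan kinase panel screen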

>  <MOLECULE>
CNc1nc(-c2ccc3c(N)n[nH]c3c2)cc(N2C[C@@H](C(=O)NC3CCCCC3)OC[C@H]2C)n1 [GSK2375584]

>  <%Inh (%)>
4

$$$$
>  <MOLECULE>
Nc1cccc(-c2ccc3c(N)n[nH]c3c2)n1 [GSK2192730]

>  <%Inh (%)>
0

$$$$
>  <MOLECULE>
COc1ccc(CSc2nnc(-c3ccc4ncsc4c3)o2)cc1C(F)(F)F

>  <%Inh (%)>
0

$$$$
>  <MOLECULE>
CC(=O)c1cccc(NC(=O)NC2CCN(c3ccnc(Nc4ccc(F)cc4)n3)C2)c1 (centres unmarked) [GSK1379710]

>  <%Inh (%)>
0

$$$$
>  <MOLECULE>
Fc1ccc(-c2nn3cccc(F)c3c2-c2ccncc2)cc1 [GW475620]

>  <%Inh (%)>
2

$$$$

###

test system: EPHB1; details: concentration: 1 μM, replicates: in singlicate; n = 1

>  <SUBSTANCE_SMILES>
COc1ccc(CSc2nnc(-c3ccc4c(c3)CCO4)o2)cc1

>  <%Inh / %>
0

$$$$
>  <SUBSTANCE_SMILES>
Cc1ccccc1Cn1ccn2c(=O)cc(N3CCOCC3)nc12

>  <%Inh / %>
10

$$$$
>  <SUBSTANCE_SMILES>
Fc1ccc(-c2nc3n(c2-c2ccncc2)CCS3)cc1

>  <%Inh / %>
9

$$$$
>  <SUBSTANCE_SMILES>
CCn1c(-c2c(N)noc2C)nc2cnccc21

>  <%Inh / %>
12

$$$$
>  <SUBSTANCE_SMILES>
CS(=O)(=O)CCNCc1nc(-c2ccc3ncnc(Nc4ccc(OCc5ccccc5)c(Cl)c4)c3c2)cs1.Cl

>  <%Inh / %>
0

$$$$

###

system: RSK4(Kin.Dom.2-C-terminal); construct: gene RPS6KA6; details: concentration: 1 μM, replicates: in singlicate; n = 1

>  <COMPOUND>
O=C1NC(=O)C(c2ccc(Cl)cc2)=C1Nc1cccc(Cl)c1 [SB-317651]

>  <%Inh, %>
13

$$$$
>  <COMPOUND>
COC(=O)c1cccc(NC(=O)NC2CCN(c3ccnc(Nc4ccc(OC)cc4)n3)C2)c1 (centres unmarked) [GSK1379746]

>  <%Inh, %>
0

$$$$
>  <COMPOUND>
CSc1ccc(-c2nc3n(c2-c2ccncc2)CCC3)cc1 [SKF-105561]

>  <%Inh, %>
70

$$$$
>  <COMPOUND>
O=C(Nc1n[nH]c2nc(-c3cccs3)c(Br)cc12)C1CC1 [SB-735297]

>  <%Inh, %>
20

$$$$
>  <COMPOUND>
COc1cccc(CNC(=O)NC2CCN(c3ccnc(Nc4ccc(F)cc4)n3)C2)c1 (centres unmarked) [GSK1379723]

>  <%Inh, %>
6

$$$$

###

test system: WEE2; settings: concentration: 1 μM, replicates: in singlicate; n = 1

>  <COMPOUND>
COc1ccc(Nc2nccc(-c3ccc(NC(=O)c4cc5cc(F)ccc5[nH]4)cc3)n2)cc1 [GSK1229496]

>  <TEST_TARGET>
WEE2

>  <UNITS_LABEL>
%

>  <%Inh>
0

$$$$
>  <COMPOUND>
COC(=O)C(NC(=O)NC1CCN(c2ccnc(Nc3ccc(F)cc3)n2)C1)c1ccccc1 (stereo not drawn) [GSK1379712]

>  <TEST_TARGET>
WEE2

>  <UNITS_LABEL>
%

>  <%Inh>
0

$$$$
>  <COMPOUND>
COc1cc2ncnc(Nc3cccc(Br)c3)c2cc1OC.Cl [GI230329]

>  <TEST_TARGET>
WEE2

>  <UNITS_LABEL>
%

>  <%Inh>
6

$$$$
>  <COMPOUND>
CC(C)c1cc(-c2ccc3c(N)n[nH]c3c2)nc(N)n1 [GSK2250882]

>  <TEST_TARGET>
WEE2

>  <UNITS_LABEL>
%

>  <%Inh>
6

$$$$
>  <COMPOUND>
Cc1ccc(NC(=O)Nc2ccccc2)cc1-c1ccc(C(=O)Nc2ccncc2)cc1 [GSK1398471]

>  <TEST_TARGET>
WEE2

>  <UNITS_LABEL>
%

>  <%Inh>
0

$$$$
>  <COMPOUND>
O=C(Nc1n[nH]c2cc(-c3ccsc3)ccc12)C1CC1 [SB-732932]

>  <TEST_TARGET>
WEE2

>  <UNITS_LABEL>
%

>  <%Inh>
13

$$$$
>  <COMPOUND>
Cc1ccc(NC(=O)Nc2ccc(Cl)cc2)cc1-c1ccc(C(=O)Nc2ccncc2)cc1 [GSK1398472]

>  <TEST_TARGET>
WEE2

>  <UNITS_LABEL>
%

>  <%Inh>
5

$$$$
>  <COMPOUND>
CCn1c(-c2c(N)noc2C)nc2cnccc21 [SB-737856]

>  <TEST_TARGET>
WEE2

>  <UNITS_LABEL>
%

>  <%Inh>
11

$$$$
>  <COMPOUND>
Cc1c(Cn2c3ccccc3n3c(=O)cc(N4CCOCC4)nc23)cccc1C(F)(F)F [GSK2306394]

>  <TEST_TARGET>
WEE2

>  <UNITS_LABEL>
%

>  <%Inh>
3

$$$$
